Origin of values: PubChem BioAssay (NCI)

As shown below, each of these molecules has a reported growth value.
System: CCRF-CEM leukemia
assay method text: NCI-60 one-dose screen, 48 h (100 = growth as untreated, 0 = no growth, -100 = all killed)
stated conditions: 10 µM
Procedure: Growth inhibition of the CCRF-CEM human tumor cell line is measured as a screen for anti-cancer activity. Cells are grown in 96 well plates and exposed to the test compound for 48 hours. Compounds are tested at a single concentration, which is 10^-5 M for most compounds. The reported endpoint is percent growth (GI% or GIPRCNT), where numbers from 0 - 100% represent growth inhibition, and numbers from -100% - 0 represent cell death. For example, a value of 40 represents 60% growth inhibition. […]
This is part of a sample that, as a whole, favours compounds with a hit. Of some 83,000 tested, about 20% had one in any assay.

>  <molecule>
CN1C(=O)N(C)C2SC(N/N=C/c3ccc(F)cc3)=NC21 (configuration not stated)

>  <system>
CCRF-CEM leukemia

>  <growth, %>
40.3

$$$$
>  <molecule>
CC(=O)C1=C(C)NC(SCC(=O)Nc2ccc(S(=O)(=O)Nc3cc(C)on3)cc2)=NC1c1ccccc1 (configuration not stated)

>  <system>
CCRF-CEM leukemia

>  <growth, %>
98

$$$$
>  <molecule>
COc1ccc2ncc(C#Cc3cncc(C(=O)Nc4ccc(CN5CCN(C)CC5)c(C(F)(F)F)c4)c3)n2n1

>  <system>
CCRF-CEM leukemia

>  <growth, %>
2.67

$$$$
>  <molecule>
O=C1NC(=NC23CC4CC(CC(C4)C2)C3)N/C1=C\c1ccc2ncsc2c1

>  <system>
CCRF-CEM leukemia

>  <growth, %>
9.69

$$$$
>  <molecule>
CCCn1c(O)c(N=Nc2nc(-c3cc4ccccc4oc3=O)cs2)c2cc(Br)ccc21

>  <system>
CCRF-CEM leukemia

>  <growth, %>
98.9

$$$$
>  <molecule>
O=C(Nc1cccc(-c2cn(-c3ccc4oc(=O)ccc4c3)nn2)c1)Nc1cc(C(F)(F)F)cc(C(F)(F)F)c1

>  <system>
CCRF-CEM leukemia

>  <growth, %>
27.1

$$$$
>  <molecule>
Brc1ccc(/C=C/c2n(Cc3ccc4ccccc4c3)c3ccccc3[n+]2Cc2ccc3ccccc3c2)cc1

>  <system>
CCRF-CEM leukemia

>  <growth, %>
-14.2

$$$$
>  <molecule>
CC(=O)Nc1ccc(-c2cn(-c3cccc(C(=O)Nc4ccc(F)c(C(F)(F)F)c4)c3)nn2)cn1

>  <system>
CCRF-CEM leukemia

>  <growth, %>
53.9

$$$$
>  <molecule>
COc1ccsc1/C=N/NC(=O)c1[nH]c2ccc(Br)cc2c1-c1ccccc1

>  <system>
CCRF-CEM leukemia

>  <growth, %>
-12.5

$$$$
>  <molecule>
COc1ccc(-c2nc(Nc3ccccc3S(N)(=O)=O)c3ccccc3n2)cc1

>  <system>
CCRF-CEM leukemia

>  <growth, %>
64.1

$$$$
>  <molecule>
O=C1NC(=NC23CC4CC(CC(C4)C2)C3)N/C1=C\c1ccc2ncoc2c1

>  <system>
CCRF-CEM leukemia

>  <growth, %>
-6.48

$$$$
>  <molecule>
CC(C)C1=C[C@@]23CC[C@@H]4[C@](C)(CCC[C@]4(C)C(=O)NCc4ccccc4)[C@H]2C[C@@H]1[C@H]1C(=O)OC(=O)[C@H]13

>  <system>
CCRF-CEM leukemia

>  <growth, %>
16.7

$$$$
>  <molecule>
Cc1ccc(-c2nc(Nc3ccc(S(N)(=O)=O)cc3)c3ccccc3n2)cc1

>  <system>
CCRF-CEM leukemia

>  <growth, %>
25.7

$$$$
>  <molecule>
COc1ccc(-c2c(N)c(=O)n(C)c3ccccc23)cc1

>  <system>
CCRF-CEM leukemia

>  <growth, %>
54.6

$$$$
>  <molecule>
COc1cccc(C(N)=Nc2ccc(OCCCCCCn3cncn3)cc2)c1

>  <system>
CCRF-CEM leukemia

>  <growth, %>
10.4

$$$$
>  <molecule>
Nc1nnc(-c2c[nH]c3ccc(F)cc23)c(-c2c[nH]c3ncccc23)n1

>  <system>
CCRF-CEM leukemia

>  <growth, %>
61.6

$$$$
>  <molecule>
Nc1nc(Nc2ccc(Cl)cc2)nn1Cc1cccc(Br)c1

>  <system>
CCRF-CEM leukemia

>  <growth, %>
34.3

$$$$
>  <molecule>
O=C(CSc1nnc(-c2ccc3nc(-c4ccc(Cl)cc4)[nH]c3c2)o1)Nc1ccc(Br)cc1

>  <system>
CCRF-CEM leukemia

>  <growth, %>
6.06

$$$$
>  <molecule>
O=C(Nc1ccccc1)Nc1nc2ccccc2s1

>  <system>
CCRF-CEM leukemia

>  <growth, %>
67.5

$$$$
>  <molecule>
CN(C)c1cccc2c(S(=O)(=O)Nc3cccc(-c4csc(NC(=O)CCCCCN5CCN(c6cc7c(cc6F)C(=O)N(C6CCC(=O)NC6=O)C7=O)CC5)n4)c3)cccc12 (configuration not stated)

>  <system>
CCRF-CEM leukemia

>  <growth, %>
66.3

$$$$
>  <molecule>
O=C(/C=C/Nc1ccccc1)c1ccc2c(c1)Nc1ccccc1S2

>  <system>
CCRF-CEM leukemia

>  <growth, %>
94.2

$$$$
>  <molecule>
COc1cc(/C=C/C(=O)c2ccc(NC(=O)CSc3nnc(-c4c[nH]c5ccccc45)n3-c3ccccc3)cc2)cc(OC)c1OC

>  <system>
CCRF-CEM leukemia

>  <growth, %>
60.5

$$$$
>  <molecule>
CN1C(=O)N(C)C2SC(N/N=C/C=C/c3ccccc3)=NC21 (configuration not stated)

>  <system>
CCRF-CEM leukemia

>  <growth, %>
47.5

$$$$
>  <molecule>
COc1ccc(C(=O)Nc2ccc(-c3ccc4c(c3)NC(=O)/C4=C\c3ccc[nH]3)cc2)cc1

>  <system>
CCRF-CEM leukemia

>  <growth, %>
26

$$$$
>  <molecule>
COc1ccc(OC)c(-c2cc(-c3c[nH]c4ccccc34)nc(N)c2C#N)c1

>  <system>
CCRF-CEM leukemia

>  <growth, %>
8.99

$$$$
>  <molecule>
O=C(CSc1nnc(-c2c[nH]c3ccccc23)n1-c1ccccc1)Nc1ccc(C(=O)/C=C/c2ccccc2Cl)cc1

>  <system>
CCRF-CEM leukemia

>  <growth, %>
88.2

$$$$
>  <molecule>
c1ccc(C(=C(c2ccc(OCCN3CCCCC3)cc2)c2ccc(OCCN3CCCCC3)cc2)C2CCCC2)cc1

>  <system>
CCRF-CEM leukemia

>  <growth, %>
-60.4

$$$$
>  <molecule>
COc1cnc2c(c1)C(=O)c1c-2n(CCCNCCO)c(=O)c2cc(OC)c(OC)cc12

>  <system>
CCRF-CEM leukemia

>  <growth, %>
12.8

$$$$
>  <molecule>
O=C(c1ccc(Cl)cc1)C1[C@H](c2ccc(Br)cc2)[C@@H](c2ccccc2)NC12C(=O)Nc1ccc(Cl)cc12 (some centres not stated)

>  <system>
CCRF-CEM leukemia

>  <growth, %>
-17

$$$$
>  <molecule>
O=C(Nc1ccc(Cl)c([N+](=O)[O-])c1)Nc1ccc(Cl)c([N+](=O)[O-])c1

>  <system>
CCRF-CEM leukemia

>  <growth, %>
14.2

$$$$
>  <molecule>
NS(=O)(=O)c1ccc(NC(=O)CSc2ccc(-c3ccc(Cl)cc3)nn2)c(Br)c1

>  <system>
CCRF-CEM leukemia

>  <growth, %>
83.7

$$$$
>  <molecule>
CCCCSc1nc(Nc2ccc(/C(C)=N/NC(N)=S)cc2)c(C#N)c(-c2ccc(F)cc2)n1

>  <system>
CCRF-CEM leukemia

>  <growth, %>
55.3

$$$$
>  <molecule>
CC1=N/C(=C\c2ccc(N(C)C)cc2)C(=O)N1CCc1ccc(S(N)(=O)=O)cc1

>  <system>
CCRF-CEM leukemia

>  <growth, %>
88.4

$$$$
>  <molecule>
CC(=O)Nc1ccc(-c2cn(-c3cccc(C(=O)Nc4ccc(Cl)c(C(F)(F)F)c4)c3)nn2)cn1

>  <system>
CCRF-CEM leukemia

>  <growth, %>
30

$$$$
>  <molecule>
O=c1cc(-c2ccccc2)oc2cc(OCCCCNCc3ccccc3)cc(O)c12

>  <system>
CCRF-CEM leukemia

>  <growth, %>
2.88

$$$$
>  <molecule>
CN(CCO)c1oc(-c2ccccc2)nc1[P+](c1ccccc1)(c1ccccc1)c1ccccc1

>  <system>
CCRF-CEM leukemia

>  <growth, %>
9.94

$$$$
>  <molecule>
O=C(Nc1nc2ccccc2s1)c1ccc(Br)cc1

>  <system>
CCRF-CEM leukemia

>  <growth, %>
85.6

$$$$
